Whole blood IFNγ assay, Bioactivity relative to TL1A-0002 listing for selected binders.
Target: T1, recombinant human TL1A (human, UniProt O95150 71-251)
T1 chain: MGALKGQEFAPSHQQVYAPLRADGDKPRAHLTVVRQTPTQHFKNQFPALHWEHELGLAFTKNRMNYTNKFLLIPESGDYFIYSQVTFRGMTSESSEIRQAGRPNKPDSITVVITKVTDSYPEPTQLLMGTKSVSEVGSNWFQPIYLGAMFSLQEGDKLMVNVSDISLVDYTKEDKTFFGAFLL
Assay: cell-based or functional assay
Give just the numeric value; fold need not be written.

Example cases with answers are listed next.
binder	units.symbol	numeric.result
TL1A-0294 (antibody, human IgG1, kappa, V domains shown, human IgG1 effector-function-minimized/kappa) VH: QVQLVQSGAEVKKPGASVKVSCKASGYDFTYYGVSWVRQAPGQGLEWMGWISTYNTNTHYAPSLQGRVTMTTDTSTSTAYMELRSLRSDDTAVYYCARESYYGSGAFRGGMDVWGQGTTVTVSS VL: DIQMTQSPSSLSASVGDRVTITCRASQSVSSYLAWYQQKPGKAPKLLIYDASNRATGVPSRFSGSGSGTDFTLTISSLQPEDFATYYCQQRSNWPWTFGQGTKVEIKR	fold	1.1
TL1A-0262 (antibody, human IgG1, kappa, V domains shown, human IgG1 effector-function-minimized/kappa) VH: QVQLVQSGAEVKKPGASVKVSCKASGYDYTYYGISWVRQAPGQGLEWMGWISTYNTGTHYAQKLQGRVTMTTDTSTSTAYMELRSLRSDDTAVYYCARESYYGSGAFRGGMDVWGQGTTVTVSS VL: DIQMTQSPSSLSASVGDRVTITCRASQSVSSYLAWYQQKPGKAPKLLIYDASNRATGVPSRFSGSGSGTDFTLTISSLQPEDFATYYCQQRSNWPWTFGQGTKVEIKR	fold	1.2
TL1A-0264 (antibody, human IgG1, kappa, V domains shown, human IgG1 effector-function-minimized/kappa) VH: QVQLVQSGAEVKKPGASVKVSCKASGYDYTYYGISWVRQAPGQGLEWMGWISTYNTVTHYAPSLQGRVTMTTDTSTSTAYMELRSLRSDDTAVYYCARESYYGSGAFRGGMDVWGQGTTVTVSS VL: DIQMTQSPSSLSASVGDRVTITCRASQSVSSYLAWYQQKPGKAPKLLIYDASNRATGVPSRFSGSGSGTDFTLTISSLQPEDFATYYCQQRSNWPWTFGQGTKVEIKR	fold	1.3
TL1A-0263 (antibody, human IgG1, kappa, V domains shown, human IgG1 effector-function-minimized/kappa) VH: QVQLVQSGAEVKKPGASVKVSCKASGYDYTYYGISWVRQAPGQGLEWMGWISTYNTGTHYAQKLQGRVTMTTDTSTSTAYMELRSLRSDDTAVYYCARESYYGSGAHRGGMDVWGQGTTVTVSS VL: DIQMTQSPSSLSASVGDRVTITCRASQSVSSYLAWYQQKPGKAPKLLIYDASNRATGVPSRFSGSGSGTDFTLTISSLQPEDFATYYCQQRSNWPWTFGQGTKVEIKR	fold	1.1

[in] // Whole blood IFNγ assay, Bioactivity relative to TL1A-0002 lookup, key: TL1A-0265 (antibody, human IgG1, kappa, V domains shown, human IgG1 effector-function-minimized/kappa) VH: QVQLVQSGAEVKKPGASVKVSCKASGYDYTYYGISWVRQAPGQGLEWMGWISTYNTVTHYAPSLQGRVTMTTDTSTSTAYMELRSLRSDDTAVYYCARESYYGSGAHRGGMDVWGQGTTVTVSS VL: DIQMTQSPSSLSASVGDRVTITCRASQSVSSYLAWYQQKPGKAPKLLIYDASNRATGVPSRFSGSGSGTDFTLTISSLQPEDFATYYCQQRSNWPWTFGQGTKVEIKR
[out] 1.2
